Target: Bordetella pertussis adenylate cyclase toxin (ACT) (Bordetella pertussis, UniProt P0DKX7)
Assay: cell-based
Assay type: cell-based
Conditions: read-out: IC50 (concentration causing a 50% decrease in ACT-induced cAMP accumulation)
readout.kind: IC50

Hi, could you look up IC50 for each item in my list?
1. CC(C)OC(=O)C(Cc1ccccc1)NP(=O)(COCCn1cnc2c(N)nccc21)NC(Cc1ccccc1)C(=O)OC(C)C (stereo not drawn) [Compound 2b]
2. CC(C)OC(=O)[C@H](Cc1ccccc1)NP(=O)(COCCc1c[nH]c2c(N)ncnc12)N[C@@H](Cc1ccccc1)C(=O)OC(C)C [Compound 15]
3. CC(C)OC(=O)[C@H](Cc1ccccc1)NP(=O)(COCCc1cccc2c(N)ncnc12)N[C@@H](Cc1ccccc1)C(=O)OC(C)C [Compound 31]

## Result
1. > 10 µM
2. > 10 µM
3. > 10 µM
